The compounds listed here are annotated with their pest or weed control at 250 g/ha.
Tested on: Amaranthus retroflexus (AMARE)
Experiment: Test 1A glasshouse assay for herbicidal activity, post-emergence
Format: in vivo
Settings: 312 h, 250 g/ha, evaluated after 13 days, read-out: percentage phytotoxicity AMARE
Reported endpoint: pest or weed control at 250 g/ha (%)

> print(dat)
                                   compound  reported
1  C#Cc1cc(C)c(C2C(=O)CC(c3ccccn3)CC2=O)c(C)c1 (stereo not shown) [Compound X-4, reference compound]         0
2  CC#Cc1cc(C)c(C2=C(OC(C)=O)CC(c3ccccn3)CC2=O)c(C)c1 (stereo not shown)        60
3  CC#Cc1ccc(C2C(=O)C3CCC(C3)C2=O)c(C)c1 (single isomer, unassigned)         0
4  CC#Cc1cc(C)c(C2C(=O)C3CCC(C3)C2=O)c(CCC)c1 (stereo not shown)        10

---

Tested on: Setaria faberi (SETFA)
Test: Biological Example 2 comparative herbicidal data, post-emergence glasshouse screen
Format: in vivo
Conditions: 312 h, 8 g/ha application rate, read-out: Post-emergence herbicidal activities (percentage phytotoxicity) SETFA
Class (required): determined from pest or weed control at 8 g/ha; valid ranges are bin A (below 20%), bin B (20% to below 50%), bin C (50% or more)

> print(dat)
                                   molecule  classification
1  CC#Cc1cc(Cl)c(C2C(=O)CC3(CCOCC3)CC2=O)c(OC)c1           bin C
2  C#Cc1cc(Cl)c(C2C(=O)CC3(CCOCC3)CC2=O)c(OC)c1           bin B
3  CSCCC1CC(=O)C(c2c(C)cc(C)cc2C)C(=O)C1 (stereo not drawn) [Compound X-7, reference compound]           bin A
4  CC#Cc1cc(C)c(C2C(=O)C3CCC(C3)C2=O)c(C)c1 (stereo not drawn)           bin B
5  C#Cc1cc(C)c(C2C(=O)CC(c3ccccn3)CC2=O)c(C)c1 (stereo not drawn) [Compound X-4, reference compound]           bin B
6      CC#Cc1cc(Cl)c(C2C(=O)CCCC2=O)c(OC)c1           bin C
7       C#Cc1cc(Cl)c(C2C(=O)CCCC2=O)c(OC)c1           bin A
8  CC#Cc1cc(C)c(C2C(=O)CC(c3ccccn3)CC2=O)c(C)c1 (stereo not drawn)           bin C

---

The compounds listed here are annotated with their plant injury at 60 g/ha.
Tested on: Brassica napus (BRSNN, rape)
Experiment: Test 1B glasshouse assay for herbicidal activity, post-emergence
Format: in vivo
Settings: 360 h, 60 g/ha application rate
Reported endpoint: plant injury at 60 g/ha

> print(dat)
                                   compound        reported.endpoint  reported
1  CCc1cc(C)cc(CC)c1C1C(=O)C2CCC(C2)C1=O (stereo not drawn) [Compound X-10, reference compound]  plant injury at 60 g/ha        0%
2  Cc1cc(C)c(C2C(=O)C3CCC(C3)C2=O)c(C)c1 (stereo not drawn) [Compound X-9, reference compound]  plant injury at 60 g/ha        0%
3  Cc1cc(C#CCl)cc(C)c1C1C(=O)C2CCC(C2)C1=O (stereo not drawn)  plant injury at 60 g/ha       60%
4  CC#Cc1ccc(C2C(=O)C(C)(C)OC(C)(C)C2=O)c(C)c1  plant injury at 60 g/ha       70%
5  CC#Cc1ccc(C2C(=O)C3CCC(C3)C2=O)c(C)c1 (single isomer, unassigned)  plant injury at 60 g/ha       70%
6  CC#Cc1cc(C)c(C2C(=O)C3CCC(C3)C2=O)c(C)c1 (stereo not drawn)  plant injury at 60 g/ha       70%
